Recorded measurements of Human A2B Receptor pKi, one per entry
target: human A2B receptor (Homo sapiens (Human)); test: Radioligand binding competition assay, [3H]-DPCPX, membranes from HEK293 cells transfected with human A2B receptor
property label: Human A2B Receptor pKi

{"compound": "CC(O)c1ccc(Nc2nnc(-c3ccncc3F)c(-c3ccccc3F)n2)cn1 (stereo not drawn) [Example 40]", "recorded value": 7.89}
{"compound": "Fc1cnccc1-c1nnc(Nc2nc(C3CC3)n[nH]2)nc1-c1ccccc1F [Example 31]", "recorded value": 7.27}
{"compound": "CCc1n[nH]c(Nc2nnc(-c3ccncc3F)c(-c3ccccc3F)n2)n1 [Example 18]", "recorded value": 6.68}
{"compound": "Fc1cnccc1-c1nnc(Nc2nc(Cl)cs2)nc1-c1cccnc1 [Example 4]", "recorded value": 6.5}
{"compound": "Cc1nnc(Nc2nnc(-c3ccncc3F)c(-c3cccnc3)n2)s1 [Example 6]", "recorded value": 5.37}
{"compound": "Fc1cccc(Nc2nnc(-c3ccncc3F)c(-c3cccnc3)n2)c1 [Example 2]", "recorded value": 6.99}
{"compound": "Fc1cnccc1-c1nnc(Nc2ccc(OCC(F)F)nc2)nc1-c1ccccc1F [Example 36]", "recorded value": 7.42}
{"compound": "CNC(=O)Nc1nnc(-c2ccncc2F)c(-c2cccnc2)n1 [Example 7]", "recorded value": 5.25}
{"compound": "Fc1cnccc1-c1nnc(Nc2nccs2)nc1-c1cccnc1 [Example 3]", "recorded value": 5.95}

* * *

molecular target: human A2B receptor (Homo sapiens (Human), UniProt P29275); experiment: Radioligand binding competition assay, [3H]-DPCPX, membranes from HEK293 cells transfected with human A2B receptor
Sequence (P29275 whole entry): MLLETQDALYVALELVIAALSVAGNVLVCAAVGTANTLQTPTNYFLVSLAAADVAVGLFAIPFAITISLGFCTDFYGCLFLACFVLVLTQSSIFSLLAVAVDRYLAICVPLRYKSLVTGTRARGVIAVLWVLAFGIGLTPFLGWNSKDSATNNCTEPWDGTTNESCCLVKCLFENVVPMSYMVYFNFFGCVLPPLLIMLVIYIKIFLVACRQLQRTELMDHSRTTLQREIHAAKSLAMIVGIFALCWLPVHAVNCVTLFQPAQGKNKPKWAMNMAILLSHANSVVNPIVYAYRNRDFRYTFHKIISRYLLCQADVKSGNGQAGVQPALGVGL
pIC50: −log10 of the molar value.
Returns 1 if the recorded pIC50 is greater than or equal to 6, and 0 otherwise.

{"structure string": "Cc1nnc(Nc2nnc(-c3ccncc3F)c(-c3cccnc3)n2)s1", "label": 0}
{"structure string": "Cc1n[nH]c(Nc2nnc(-c3ccncc3F)c(-c3ccccc3F)n2)n1", "label": 1}
{"structure string": "Fc1cnccc1-c1nnc(Nc2nc(Cl)cs2)nc1-c1cccnc1", "label": 1}
{"structure string": "Fc1cccc(Nc2nnc(-c3ccncc3F)c(-c3cccnc3)n2)c1", "label": 1}
{"structure string": "Fc1cnccc1-c1nnc(Nc2cccnc2)nc1-c1cccnc1", "label": 1}
{"structure string": "CNC(=O)Nc1nnc(-c2ccncc2F)c(-c2ccccc2F)n1", "label": 1}
{"structure string": "Cc1cc(Nc2nnc(-c3ccncc3F)c(-c3ccccc3F)n2)[nH]n1", "label": 1}
{"structure string": "Cc1nsc(Nc2nnc(-c3ccncc3F)c(-c3cccnc3)n2)n1", "label": 0}
{"structure string": "CNC(=O)Nc1nnc(-c2ccncc2F)c(-c2cccnc2)n1", "label": 0}
{"structure string": "Fc1cccc(Nc2nnc(-c3ccncc3F)c(-c3ccccc3F)n2)c1", "label": 1}

* * *

molecular target: UniProt P29275; test: cAMP assay (b), HEK293 cells expressing recombinant human A2B receptor; format: cell-based; conditions: reference agonist at EC80, read-out: cAMP pIC50 (converted)
property label: IC50

{"structure string": "Cc1cnc(-c2nc(Nc3cccc(F)c3)nnc2-c2ccncc2F)o1", "property label": "IC50", "recorded value": "324 nM"}
{"structure string": "Cc1n[nH]c(Nc2nnc(-c3ccncc3F)c(-c3ccccc3F)n2)n1", "property label": "IC50", "recorded value": "501 nM"}
{"structure string": "Cc1ccc(Nc2nnc(-c3ccncc3F)c(-c3ccccc3F)n2)cn1", "property label": "IC50", "recorded value": "66.1 nM"}
{"structure string": "OCc1ncc(Nc2nnc(-c3ccncc3F)c(-c3ccccc3F)n2)cn1", "property label": "IC50", "recorded value": "41.7 nM"}
{"structure string": "Fc1cnccc1-c1nnc(Nc2ccc(C(F)(F)F)nc2)nc1-c1ccccc1F", "property label": "IC50", "recorded value": "107 nM"}
{"structure string": "COc1ccc(Nc2nnc(-c3ccncc3F)c(-c3ccccc3F)n2)cn1", "property label": "IC50", "recorded value": "105 nM"}
{"structure string": "Fc1cnccc1-c1nnc(Nc2nc(C3CC3)n[nH]2)nc1-c1ccccc1F", "property label": "IC50", "recorded value": "275 nM"}
{"structure string": "OCc1ccc(Nc2nnc(-c3ccncc3F)c(-c3ccccc3F)n2)cn1", "property label": "IC50", "recorded value": "29.5 nM"}
{"structure string": "CC(C)(O)c1ccc(Nc2nnc(-c3ccncc3F)c(-c3ccccc3F)n2)cn1", "property label": "IC50", "recorded value": "50.1 nM"}

Where do the numbers come from? From patent US12391670B2.
